Data provenance: patent US20260242478A1

biological target: T1, Anti-CD28 Fab (SEQ ID NOs: 696, 697); test: phage binding ELISA; Fab-coated wells pre-incubated with CD28 antigen as competitor, anti-M13 HRP detection;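 also: crude clonal phage supernatants from panned colonies added to wells after blocking buffer plus CD28 treatment, bound phage measured after a brief incubation and washing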
T1 construct: Biotinylated and captured on neutravidin coated plates in the phage ELISA
T1 sequence (VH, as listed by the source, chain 1 of 2): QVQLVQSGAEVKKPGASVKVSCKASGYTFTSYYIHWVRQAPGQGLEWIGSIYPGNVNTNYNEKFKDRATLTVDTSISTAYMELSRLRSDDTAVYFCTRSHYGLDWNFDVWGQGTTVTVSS
T1 sequence (VL, as listed by the source, chain 2 of 2): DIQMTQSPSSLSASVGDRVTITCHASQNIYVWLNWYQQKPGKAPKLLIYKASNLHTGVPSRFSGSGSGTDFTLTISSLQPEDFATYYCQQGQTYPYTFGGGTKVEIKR
readoutKind: Anti-CD28 Fab signal in the presence of CD28 (phage binding ELISA)
Form: value (number only, do not type unit).

YCEGHLPEYLGKCL (peptide, not shown: large carriers, Clonal phage of the Peptide-87 optimisation library, tested as crude supernatant) [Phage-486] : 0.08
YCEGHAPEYMAKCL (peptide, not shown: large carriers, Clonal phage of the Peptide-87 optimisation library, tested as crude supernatant) [Phage-499] : 0.08
YCEGHLPEYIQKCL (peptide, not shown: large carriers, Clonal phage of the Peptide-87 optimisation library, tested as crude supernatant) [Phage-495] : 0.08
YCEGHSSEYIQKCL (peptide, not shown: large carriers, Clonal phage of the Peptide-87 optimisation library, tested as crude supernatant) [Phage-490] : 0.1

Summary for this binder, YCDGHSPIYMWKCL (peptide, not shown: large carriers, Clonal phage of the Peptide-87 optimisation library, tested as crude supernatant) [Phage-498] : Anti-CD28 Fab signal in the presence of CD28 (phage binding ELISA) is 0.09

Summary for this binder, YCEGHLPEYLEKCV (peptide, not shown: large carriers, Clonal phage of the Peptide-87 optimisation library, tested as crude supernatant) [Phage-494] : Anti-CD28 Fab signal in the presence of CD28 (phage binding ELISA) is 0.06
